Hey, just so you know, these numbers are from a melting point compilation (Tetko et al.; mined from patent text by program, amines drawn as free bases though some values may be those of a salt).

observed.property: melting point

Briefly, melting point measured for `Nc1ccc(NC(=O)OCc2ccccc2)c(O)c1` : 148 °C

// melting point value for CC1(CNC(=O)CC2CN=C(c3cc4cc(Oc5ccc(S(C)(=O)=O)nc5)cc(OC5CCOCC5)c4[nH]3)S2)COC1 (stereo not given) : 189 to 190 °C

For record CCOC(=O)C1=C(C(F)(F)F)Nc2n[nH]cc2C1c1ccccc1 (stereo not given) the listed melting point is 110 to 115 °C

response.value for `Cc1nn(-c2cc(Oc3ccc([N+](=O)[O-])cn3)c(Cl)cc2F)c(=O)n1C(F)F` (field: melting point) = 120 to 123 °C

Kindly note the recorded melting point for `CN(C)Cc1ccc(CSCCNc2ncc(-c3ccccc3)c(=O)[nH]2)o1` , which is 116 to 118 °C

----------
observed.property: melting point

Recorded melting point (molecule Cn1cc(CC(NC(=O)CCS)C(=O)O)c2ccccc21 (racemic) ): 115 to 117 °C

Lookup result for `C=C(c1cccnc1)c1c(CC(=O)OC)[nH]c2ccccc12` ; measured melting point: 154 to 157 °C

The molecule listed as `NC(=O)[C@H]1CN2C(=O)N(c3cc(Cl)cc(Cl)c3)C(=O)[C@]2(Cc2ccc(OC(F)(F)F)cc2)C1` has a reported melting point of 123 °C

----------
I'd be grateful if you could share measured melting point for these entries.

Reported melting point for COc1cc2c(cc1OC)C(C(=O)O)SCC2 (stereo unspecified) was 167 to 169 °C

// sample CCC1(CCCCCl)C(=O)Nc2ccc(Cl)cc21 (stereo unspecified) , its melting point was 116 to 117 °C

melting point for `CCCCCCOc1ccc(Nc2cc(Nc3ccc4c(c3)OCCO4)ncc2F)cc1` is 124 to 125 °C

Measured melting point of `CCc1nc(OC)c(NC(=O)N2CCN(c3cccc(F)c3)CC2)cc1C(=O)Nc1cc(CO)cc(Nc2c3ccccc3nc3ccccc23)c1` : 186 to 188 °C

Entry under test: `CC(C)n1cnc2c(N[C@H](CO)c3ccccc3)nc(NC[C@@H](C)O)nc21` . Its melting point was 109 to 112 °C

Consider `Fc1ncccc1-c1cscc1Br` . Its measured melting point is 48 to 50 °C

Recorded melting point (compound CN(C)CC1CCc2cc(NC(=O)c3ccc(-c4ccc(Cl)c(Cl)c4)cc3)ccc2C1 (stereo unspecified) ): 143 to 145 °C

Field melting point (entry `CC(=O)N1CCC(N2C(=O)CN=C(c3ccccc3)c3ccccc32)CC1` ) reads 208 to 209 °C

Input `O=S1CCN(c2nc3c(-c4nc(C5CC5)no4)ncn3c3ccccc23)CC1` . Output melting point: 293 to 294 °C

Measured melting point of `Cn1nc(Cl)cc(Nc2ccn(C3CN(C(=O)OC(C)(C)C)C3)n2)c1=O` : 154 to 156 °C

Short answer for `N#Cc1ccc2oc(CCCCc3cc4cc(C#N)ccc4o3)cc2c1` : melting point was 187 to 188 °C

Lookup result for `O=C1c2cc(Cl)ccc2N(N2CCOCC2)C2=NCCN12` ; measured melting point: 238 to 239 °C

// `CC(=O)C=Cc1ccc(C#N)cc1` : melting point value = 103 to 106 °C

For this compound ( `COc1c(Br)cc(Br)cc1C1(C#N)CCCCC1` ), measured melting point is 100 to 102 °C

Lab book: melting point of `CC(C)(C)[Si](C)(C)OCCn1ccc(N)n1` noted as 54 to 55 °C

The reported value for `CCCn1c(=O)c2c(N3CCN(C)CC3)cc(Cl)cc2n(Cc2ccccc2)c1=O` in terms of melting point is 120 to 121 °C

Reported melting point for `O=S(=O)(NC=NCCCOc1cccc(CN2CCCCC2)c1)c1ccc(Cl)cc1` was 75 to 79 °C

Input `Nc1cc(Br)cc2cccnc12` . Output melting point: 142 to 145 °C

Kindly note the recorded melting point for `Cc1ccc(-c2ccc3c(c2)C=C(C(=O)Nc2ccc(CN(C)C4CCOCC4)cc2)CO3)cc1` , which is 143 to 145 °C

Field melting point (entry `COc1cccc(-c2ccccc2CNC(=O)C(C)C)c1` ) reads 103 to 105 °C

Entry Cc1c(Nc2cc(-c3cccc(C4NCCc5c4sc4c5CC(C)(C)C4)c3CO)cn(C)c2=O)cnn1C (stereo unspecified) ; melting point = 164 to 165 °C

The compound identified as `Cc1ccc(OCC=C(Cl)Cl)c(Cl)c1O` registered its melting point at 70 °C

Value of melting point reported for the compound CCS(=O)c1cc2c(cc1OC)CCn1c-2cc2c1C(=O)N(C(C)(C)C)CCCC2 (stereo unspecified) is 185 to 187 °C

In plain terms, `CCOC(=O)c1nc2cccnc2n(-c2ccc(Cl)cc2)c1=O` has a documented melting point of 158 °C

Input `CCN(CC)CCCNC(=O)c1ccc(S(N)(=O)=O)cc1` . Output melting point: 122 to 123 °C

Entry `COc1cc(OCC(CO)CO)c(C=O)cc1-c1cccs1` — recorded melting point = 144 to 145 °C

Entry `CS(=O)(=O)c1ccc(-c2cccn2-c2ccc(Cl)c(Cl)c2)cc1` — recorded melting point = 139 to 142 °C

For this compound ( `CCCNC(=O)CCn1cnc2c(N)nc3ccccc3c21` ), measured melting point is 212 to 214 °C

Reported melting point for `O=C(NCc1ccccn1)c1cc2ccnc(Cl)c2[nH]1` was 177 to 183 °C

Per the record, COC(=O)CC1c2cc(OC)ccc2N(c2nc3ccccc3nc2Cl)C1C (stereo unspecified) has melting point of 155 to 157 °C

Please fill in: melting point reported for `Cc1ncc(-c2ccccc2)s1` = 72 to 74 °C

For reference, reported melting point for `Nc1nc(N)nc(-c2ccc(NS(=O)(=O)c3cccc4ccccc34)cc2)n1` stands at > 250 °C

The compound identified as `CC(C)Oc1ccc(F)cc1OCCN1C(=O)c2ccccc2C1=O` registered its melting point at 68 °C

`COc1ccc(C2=NN(C3CCN(C(=O)CN4CCN(C)CC4)CC3)C(=O)C(C)(C)C2)c2c1OC(C)(C)C2` yielded melting point of 121 to 123 °C

// `Cc1c(N)c(C#N)cc(F)c1F` : melting point value = 114 to 116 °C

Consider `COC(=O)CCc1ccc(N2CCN(c3ccc(CN)cc3C)C2=O)cc1` . Its measured melting point is > 275 °C

----------
observed.property: melting point

Looking up CC(Oc1ccc(Cl)nc1Cl)C(=O)O (centres undefined) , I found its melting point recorded as 128 to 131 °C

Entry `O[C@@H](COc1cccc(-c2noc3ccsc23)c1)CN1CCN(c2ccccc2Cl)CC1` — recorded melting point = 83 to 86 °C

The compound `CC(C)(Oc1ccc(C(=O)c2ccccc2)cc1)C(=O)O` showed melting point equal to 130 °C

// sample `NNc1nncc(-c2ccccc2F)n1` , its melting point was 171 to 174 °C

# melting point of `CCC#CCCOc1cc(C=O)ccc1OC` = 86.5 to 87.5 °C

The compound `CC(C)(C)c1ccc(S(=O)(=O)N2c3ccccc3C[C@H]2C(=O)NCc2cccc(O)c2)cc1` showed melting point equal to 94 °C

The measured melting point associated with CC1(C)CCCC(N=[N+]=[N-])C(=O)N1 (centres undefined) reads 98 to 100 °C

The compound listed as `CCNC(=O)c1c[nH]c2ncc(-c3nn(C)c4cc(Cl)ccc34)nc12` shows melting point equal to 373 to 377 °C

Looking up O=C1CCC(N2Cc3c(OCc4ccc(CN5CCn6nc(C(F)(F)F)nc6C5)cc4)cccc3C2=O)C(=O)N1 (centres undefined) , I found its melting point recorded as 139 to 142 °C

melting point for COc1ccccc1N1CCN(CC(O)COc2ccc3cc(C(C)=O)oc3c2)CC1 (centres undefined) is 122 to 125 °C

Recorded melting point (compound `CCCNCc1cnc2c(C)c(NC(=O)c3ccc(OC[C@@H]4CCCO4)cc3)ccc2c1` ): 121 to 122 °C

Form field melting point, entry `CNc1nc(C(=O)N(C)Cc2cc(C(F)(F)F)cc(C(F)(F)F)c2)c(-c2ccccc2)c2ccccc12` : 213 to 214 °C

For record `Cn1c(=O)c2ccsc2n(CC2CC2)c1=O` the listed melting point is 75 to 77 °C

Quick note, melting point for `NC(=O)c1ccc(F)c(O)c1F` landed at 161 to 162 °C

In plain terms, `Cc1noc(NS(=O)(=O)c2ccsc2C(=O)Nc2cc3c(cc2C#N)OCO3)c1Cl` has a documented melting point of 167 to 168 °C

The compound identified as `CC=CCn1c(Nc2cc(C)cc(C)c2)c(CC)c(=O)[nH]c1=O` registered its melting point at 190 to 192 °C

Value of melting point reported for the compound CC(=O)NCC1CN(c2ccc(N3CCN(c4nc5ccccc5o4)CC3)c(F)c2)C(=O)O1 (centres undefined) is 223 to 224 °C

GET /value?item= `O=C(Nc1c[nH]nc1C(=O)NCCCc1ccccc1)c1ccccn1` &field=melting point returns 179 to 180 °C

melting point recorded for this compound, `Cc1cc(Br)cc(C)c1OCCO` , is 47 to 48 °C
